System: P. berghei GFP-Lucama1 (1037cl1)
Assay protocol: P. berghei in vitro drug luminescence assay (blood stages)
Format: cell-based, Plasmodium berghei
Test context: in vitro dose-response curves, blood stages; read-out: EC50, inhibition of P. berghei intra-erythrocytic growth
Measured pEC50, listed per entry.
// pEC50 here means minus log10 of the molar concentration (mol/L)

// solved cases for pEC50 follow
> print(dat)
                                   compound               experimental.system  assay.result
1  O=C(N/N=C/c1c(O)ccc2ccccc12)c1nc(-c2ccccc2)cc(-c2ccccc2)n1  P. berghei GFP-Lucama1 (1037cl1)          6.30
2  CC1Oc2ccc(-c3csc(NC(=O)COc4ccc(Cl)cc4)n3)cc2NC1=O (stereo not drawn)  P. berghei GFP-Lucama1 (1037cl1)          4.65

Now, please, on to the next compound.
Just so you know, measured pEC50 for Cc1ccc(-c2nn(-c3cc(N4CCN(CCO)CC4)ccc3[N+](=O)[O-])c(=O)c3ccccc23)cc1C came out at 4.55
